# credit: the RNAGym collection of RNA variant scans (doi:10.7554/elife.80360)

B1: CPEB3 Ribozyme (parent)
chain: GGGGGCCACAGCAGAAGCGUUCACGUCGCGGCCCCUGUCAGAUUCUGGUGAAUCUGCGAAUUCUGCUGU

- Variants of: B1
- ASSAY_TEXT: self-cleavage, relative activity (ratio to wild type); higher = more cleavage; co-transcriptional

MUTANT_NAME	self-cleavage
C22U C29G	0.152
C39G U53G	0.533
C54A C63G	0.445
A13G C29A	0.42
A16G U61A	0.833
C12G C18U	0.178
A13C G31U	0.508
A23U U67G	0.979
G5C U67C	0.254
U53G G65C	0.704
G19C U44G	0.164
C12A G50U	0.738
G41A G47C	0.913
G25C C66U	0.15
C7U G25A	0.144
G37U C57A	0.174
G17U C34U	0.514
G37A U64G	0.254
G11U G28U	0.192
G37U U38G	0.254
C6A U26A	0.256
C22U G56C	0.21
A13U C39G	0.508
U21A C39U	0.928
U26A C63A	0.51
A42U U62G	0.738
U36C G47A	0.953
G2A G14A	0.0649
C6G G19U	0.0686
G50U G58U	1.03
U21A G50A	0.989
G65C C66U	0.816
G48U	0.999
C34A C63G	0.411
G5A C22U	0.129
G4A A8C	0.897
G25A G31A	0.219
U55A U61A	0.635
A15U A42U	0.613
U61G C63U	0.57
G14C U62G	0.368
A51G C54A	0.854
G4C U69G	0.914
C34G A42C	0.317
C32U	0.993
C33U G47C	0.969
